growth reference
- Test system: OVCAR-8 ovarian
- assay_comment: NCI-60 one-dose screen, 48 h (100 = growth as untreated, 0 = no growth, -100 = all killed)
- study_conditions: 10 µM unless noted
- Procedure: Growth inhibition of the OVCAR-8 human tumor cell line is measured as a screen for anti-cancer activity. Cells are grown in 96 well plates and exposed to the test compound for 48 hours. Compounds are tested at a single concentration, which is 10^-5 M for most compounds. The reported endpoint is percent growth (GI% or GIPRCNT), where numbers from 0 - 100% represent growth inhibition, and numbers from -100% - 0 represent cell death. For example, a value of 40 represents 60% growth inhibition. […]
About 83,000 compounds went through this panel and 20% of them were active in at least one assay; those are over-represented in the sample as a whole.
State just the number; it will be interpreted in %.

Known results for compounds:
>>> value_observed("O=C1OC(c2ccccc2)=N/C1=C\\c1ccccc1")
100
>>> value_observed("CCCCCCCCCCCCCCCCC(C(=O)O)C(O)(CC(=O)O)C(=O)O (stereo unspecified)")
111
>>> value_observed("Fc1ccc([I+]c2ccc(F)cc2)cc1")
46.1
>>> value_observed("CC(C)C(C)(C)c1ccc(O)cc1")
106
>>> value_observed("Nc1nc(N)c2[nH]cnc2n1")
70.4

Quick one: growth for `N#CC(C#N)N=Nc1ccc(Cl)cc1` ?
62.1

Quick one: growth for `Cc1cc(-c2ccc(N=Nc3ccc4c(S(=O)(=O)O)cc(S(=O)(=O)O)c(N)c4c3O)c(C)c2)ccc1N=Nc1ccc2c(S(=O)(=O)O)cc(S(=O)(=O)O)c(N)c2c1O` ?
101

This collection of values is drawn from PubChem BioAssay (NCI).
